Biological target: T1, recombinant human IL-23 (hrIL-23), produced at Centocor (human, UniProt P29460 23-328)
T1 sequence 1: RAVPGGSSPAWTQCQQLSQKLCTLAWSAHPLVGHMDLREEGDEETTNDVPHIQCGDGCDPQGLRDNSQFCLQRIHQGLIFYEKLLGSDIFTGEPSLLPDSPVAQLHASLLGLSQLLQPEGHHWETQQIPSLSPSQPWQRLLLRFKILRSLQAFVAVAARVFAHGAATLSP
T1 sequence 2: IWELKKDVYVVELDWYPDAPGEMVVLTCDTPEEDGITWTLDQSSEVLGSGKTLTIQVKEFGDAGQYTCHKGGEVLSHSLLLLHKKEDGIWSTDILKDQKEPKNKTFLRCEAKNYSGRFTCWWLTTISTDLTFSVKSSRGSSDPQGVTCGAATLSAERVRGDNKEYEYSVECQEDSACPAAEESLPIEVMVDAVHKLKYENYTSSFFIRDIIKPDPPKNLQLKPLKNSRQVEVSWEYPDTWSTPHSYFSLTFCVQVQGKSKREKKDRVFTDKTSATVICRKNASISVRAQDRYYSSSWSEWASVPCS
Test: cell-based or functional assay

binder	Inhibition of IL-17 production, IC50 [µg/mL]
mAb MOR05052 (antibody, IgG1, V domains shown) VH: QVELVESGGGLVQPGGSLRLSCAASGFTFSSFGMSWVRQAPGKGLEWVSITYASVKGRFTISRDNSKNTLYLQMNSLRAEDTAVYYCARYWGTPYLMQFDNWGQGTLVTVSS VL: DIALTQPASVSGSPGQSITISCTGTSSDVGGYNSVSWYQQHPGKAPKLMIYSVSSRPSGVSNRFSGSKSGNTASLTISGLQAEDEADYYCSSYDTNKPLVVFGGGTKLTVL	0.0178
mAb MOR05032 (antibody, IgG1, V domains shown) VH: QVELVQSGAEVKKPGSSVKVSCKASGGTFSSNYISWVRQAPGQGLEWMGGIIPIFGHANYAQKFQGRVTITADESTSTAYMELSSLRSEDTAVYYCARSKKGMYGGWTYPLMMFDLWGQGTLVTVSS VL: DIVLTQSPATLSLSPGERATLSCRASQSVSSNYLAWYQQKPGQAPRLLIYYASRRATGVPARFSGSGSGTDFTLTISSLEPEDFAYYCQQNPFTFGQGTKVEIK	0.172
mAb MOR05044 (antibody, IgG1, V domains shown) VH: QVELVQSGAEVKKPGESLKISCKGSGYSFSNYWIGWVRQMPGKGLEWMGIIPSSTYSPSFQGQVTISADKSISTAYLQWSSLKASDTAMYYCARWYYKPFDVWGQGTLVTVSS VL: DIVLTQPPSVSGAPGQRVTISCTGSSSNIGSGYDVHWYQQLPGTAPKLLIYGNSKRPSGVPDRFSGSKSGTSASLAITGLQSEDEADYYCSSWTPSSVVFGGGTKLTVL	0.0141

Entry source: patent US20070218064A1
